# methodSummary: Flavopiridol plasma pharmacokinetics
# Assay type: in vivo
# assaySetup: human, intravenous, 80 mg/m2, Cmax, cohort 7a (80 mg/m^2), the 3 patients who experienced a DLT
readout: Cmax (nM)
Numbers only here, please. The scale is nM.

Entry CN1CC[C@H](c2c(O)cc(O)c3c(=O)cc(-c4ccccc4Cl)oc23)[C@H](O)C1 [flavopiridol, Flavopiridol] needs its Cmax filled in; supply it.
2260
